Taken from the supplement of paper PMC10567573.

B1: RAB11B (parent)
chain: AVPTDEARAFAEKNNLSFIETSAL

variants of: B1; assay: protein stability index of a GFP-peptide fusion (GPS, HEK-293T) (PSI 1-6); higher = more stable; conditions: c terminus: a fixed tail appended;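 further: lentivirally expressed fusions sorted by FACS into six bins by GFP to DsRed ratio, PSI derived from sequencing read proportions per bin multiplied by bin number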
Rule: Criterion met for protein stability index not less than 3, Criterion not met for anything less.

*Q* Dear colleague, could you confirm whether `T4E` has protein stability index at or above 3?
*A* Criterion met

*Q* Has `S17K` a recorded protein stability index greater than or equal to 3?
*A* Criterion met

*Q* Record `T21A` ; criterion: protein stability index no lower than 3. Met?
*A* Criterion met

*Q* Has `F10Q` a recorded protein stability index greater than or equal to 3?
*A* Criterion met

*Q* Please check the record `A7S` and state if its protein stability index is at or above 3.
*A* Criterion not met

*Q* Is protein stability index for `T4M` at or above 3?
*A* Criterion not met

*Q* protein stability index >= 3 for `L16M` ?
*A* Criterion met

*Q* API: above_or_equal(metric=protein stability index, cutoff=3) for item `E6R`
*A* Criterion not met

*Q* Could you tell me if the measured protein stability index of `F18T` reaches 3 or more?
*A* Criterion met

*Q* Given the entry `E20K` , answer whether its protein stability index meets or surpasses 3.
*A* Criterion met

*Q* Check the entry `F10K` : does protein stability index equal or exceed 3?
*A* Criterion not met

*Q* Threshold query (protein stability index >= 3) on `N14D`
*A* Criterion met

*Q* Hi, just wondering whether `S17R` shows protein stability index of 3 or higher.
*A* Criterion met

*Q* Is reported protein stability index greater than or equal to 3 here: `L16A`
*A* Criterion met

*Q* Test whether the variant `A7C` records protein stability index of 3 or higher.
*A* Criterion not met

*Q* Is the recorded value of protein stability index equal to or greater than 3 for this variant? `A9S`
*A* Criterion not met

*Q* Has `L16K` a recorded protein stability index greater than or equal to 3?
*A* Criterion met

*Q* Could you please find out whether `T21C` has protein stability index that meets 3 or exceeds it?
*A* Criterion not met

*Q* Is protein stability index for `R8P` at or above 3?
*A* Criterion not met

*Q* For this variant, is measured protein stability index 3 or higher? `A11P`
*A* Criterion not met

*Q* Please indicate if the recorded protein stability index for `I19S` meets or exceeds 3.
*A* Criterion met

*Q* Confirm if protein stability index reported for the variant `L24C` is 3 or above.
*A* Criterion met

*Q* Quick check: does `I19Y` have protein stability index greater than or equal to 3?
*A* Criterion met

*Q* Record `E6N` ; criterion: protein stability index no lower than 3. Met?
*A* Criterion not met

*Q* Hi team, for `I19L` , is the recorded protein stability index at or above 3?
*A* Criterion met

*Q* State whether the measured protein stability index reaches 3, counting equality as reaching it, for `F10A`
*A* Criterion met

*Q* Hi, just wondering whether `R8C` shows protein stability index of 3 or higher.
*A* Criterion not met

*Q* # check: protein stability index of `S17L` is greater than or equal to 3
*A* Criterion not met

*Q* Reported protein stability index at or above 3? `A23D`
*A* Criterion met

*Q* Threshold query (protein stability index >= 3) on `L24W`
*A* Criterion not met

*Q* Hello, I need to know if `V2N` has measured protein stability index not below 3. Thanks!
*A* Criterion met

*Q* Item `E6C` with protein stability index of 3 or above?
*A* Criterion not met

*Q* protein stability index >= 3 for `I19D` ?
*A* Criterion met

*Q* hey, is protein stability index for this one >= 3? `K13D`
*A* Criterion met

*Q* Please tell me: is the variant `E12V` at or over 3 in terms of protein stability index?
*A* Criterion not met

*Q* Quick check: does `N14Y` have protein stability index greater than or equal to 3?
*A* Criterion not met

*Q* Does `F18E` have a reported protein stability index of at least 3?
*A* Criterion met

*Q* State whether the measured protein stability index reaches 3, counting equality as reaching it, for `D5F`
*A* Criterion not met

*Q* Given the entry `A11D` , answer whether its protein stability index meets or surpasses 3.
*A* Criterion met

*Q* Hi, just wondering whether `F10C` shows protein stability index of 3 or higher.
*A* Criterion met

*Q* // inclusive: protein stability index at least 3? input: `T21K`
*A* Criterion met

*Q* Hello, I need to know if `L24F` has measured protein stability index not below 3. Thanks!
*A* Criterion not met

*Q* Decide: protein stability index of `I19M` >= 3?
*A* Criterion met

*Q* Dear colleague, could you confirm whether `V2F` has protein stability index at or above 3?
*A* Criterion not met
